pEC50 values for the compounds below.
experimental.system: S1P1 (Homo sapiens, UniProt P21453)
Sequence (P32121 whole entry partner, one chain of several): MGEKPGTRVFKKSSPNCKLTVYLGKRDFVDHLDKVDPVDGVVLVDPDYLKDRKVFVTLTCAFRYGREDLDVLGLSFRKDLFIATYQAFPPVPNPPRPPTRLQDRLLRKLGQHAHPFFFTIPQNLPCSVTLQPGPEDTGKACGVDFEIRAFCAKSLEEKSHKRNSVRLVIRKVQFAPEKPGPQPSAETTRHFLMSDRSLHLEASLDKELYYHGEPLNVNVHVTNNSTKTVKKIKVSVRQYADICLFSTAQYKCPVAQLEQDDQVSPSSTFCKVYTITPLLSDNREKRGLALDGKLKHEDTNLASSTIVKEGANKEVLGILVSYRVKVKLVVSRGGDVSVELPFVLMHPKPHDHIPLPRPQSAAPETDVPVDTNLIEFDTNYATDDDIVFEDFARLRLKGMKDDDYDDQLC
protocol.description: Tango β-arrestin Recruitment Assay in HEK293 cells (Assay 2a)
Type: cell-based
Set-up: linker with TEV protease (N1a) cleavage site (C); host or cells: HEK293, transiently transfected
test.parameters: Tango β-arrestin Recruitment Assay, read-out: Assay 2a EC50
Protocol: For the Tango™ β-arrestin recruitment assay, the cytoplasmic C-terminus of S1P1 is tethered to the tTA transcriptional activator with a linker that contains a cleavage site for the N1a protease from tobacco etch virus (TEV protease). The C-terminus of the human β-arrestin2 protein is fused to TEV protease. […] Assay 1 is the CNG cAMP Assay as described in Biological Example 1. […] EC50's were measured unless otherwise noted. […]
pEC50: −log10 of the molar value.
parameter: pEC50

compound | reading
Cc1ccccc1-c1noc(-c2cn3cc(C(F)(F)F)cc(Cl)c3n2)n1 [Example 150] | 6.30 to 7.00
O=C(O)CCNCc1ccc(-c2noc(-c3cn4cc(C(F)(F)F)cc(Br)c4n3)n2)c(Cl)c1 [Example 131] | 6.30 to 7.00
CC(C)Cc1cc(Cl)c2nc(-c3nc(-c4cc(F)c(CCC(=O)O)cc4Cl)no3)cn2c1 [Example 149] | ≥ 7.00
O=C(O)CCc1ccc(-c2noc(-c3cn4cc(C(F)(F)F)cc(Cl)c4n3)n2)c(F)c1 [Entry 19] | 6.30 to 7.00
FC(F)(F)c1cc(Br)c2nc(-c3nc(-c4ccccc4Cl)no3)cn2c1 [Example 159] | 6.30 to 7.00
O=C(O)CCc1cc(Cl)c(-c2noc(-c3cn4cc(C(F)(F)F)cc(Br)c4n3)n2)cc1Cl [Entry 68] | ≥ 7.00
NCCOc1ccc(-c2noc(-c3cn4cc(C(F)(F)F)cc(Cl)c4n3)n2)c(Cl)c1 [Example 257] | ≥ 7.00
Cc1ccc(Oc2cc(Cl)c3nc(-c4nc(-c5cc(F)c(CCC(=O)O)cc5Cl)no4)cn3c2)cc1 [Entry 67] | ≥ 7.00
O=C(O)CCc1cc(Cl)c(-c2noc(-c3cn4cc(C(F)(F)F)cc(Br)c4n3)n2)cc1F [Entry 49] | ≥ 7.00
O=C(O)CCc1cc(Cl)c(-c2nc(-c3cn4cc(C(F)(F)F)cc(Cl)c4n3)no2)cc1Cl [Example 315] | ≥ 7.00
O=C(O)CCc1cc(Cl)c(-c2nnc(-c3cn4cc(C(F)(F)F)cc(Cl)c4n3)s2)cc1F [Example 176] | ≥ 7.00
Cc1cc(CC(C)C(=O)O)ccc1-c1noc(-c2cn3cc(C(F)(F)F)cc(Br)c3n2)n1 (stereo not shown) [Example 173] | 6.30 to 7.00
O=C(O)CCc1ccc(-c2noc(-c3cn4cc(C(F)(F)F)cc(Cl)c4n3)n2)cc1F [Entry 6] | ≥ 7.00
O=C(O)CCc1cc(Cl)c(-c2nnc(-c3cn4cc(C(F)(F)F)cc(Br)c4n3)s2)cc1F [Example 177] | ≥ 7.00
O=C(O)CCc1ccc(-c2nnc(-c3cn4cc(C(F)(F)F)cc(Cl)c4n3)o2)c(Cl)c1 [Example 99] | 6.30 to 7.00
Cc1cc(NS(C)(=O)=O)ccc1-c1noc(-c2cn3cc(C(F)(F)F)cc(Cl)c3n2)n1 [Example 98] | ≥ 7.00

* * *

pEC50 values for the compounds below.
experimental.system: S1P1 (Homo sapiens)
protocol.description: Tango β-arrestin Recruitment Assay in U2OS cells (Assay 2b)
Type: cell-based
Parameters: linker with TEV protease (N1a) cleavage site (C)
test.parameters: Tango β-arrestin Recruitment Assay, footnote 1: Relative EC50 was measured, read-out: Assay 2b relative EC50
pEC50: −log10 of the molar value.
parameter: pEC50

compound | parameter | reading
CC(N)COc1cc(Cl)c(-c2nnc(-c3cn4cc(C(F)(F)F)cc(Cl)c4n3)s2)cc1F (centres unmarked) [Example 298] | pEC50 | 6.30 to 7.00
CS(=O)(=O)CCOc1cc(Cl)c(-c2noc(-c3cn4cc(C(F)(F)F)cc(Cl)c4n3)n2)cc1Cl [Example 333] | pEC50 | 6.30 to 7.00
COc1cc(Cl)c(-c2noc(-c3cn4cc(C(F)(F)F)cc(Cl)c4n3)n2)cc1Cl [Example 341] | pEC50 | 6.00 to 6.30
COC(=O)C(C)(O)COc1cc(Cl)c(-c2noc(-c3cn4cc(C(F)(F)F)cc(Cl)c4n3)n2)cc1Cl (centres unmarked) [Example 319] | pEC50 | 6.30 to 7.00
CC(N)COc1cc(Cl)c(-c2nnc(-c3cn4cc(C(F)(F)F)ccc4n3)s2)cc1Cl (centres unmarked) [Example 340] | pEC50 | 5.00 to 5.30

* * *

experimental.system: S1P1 (Homo sapiens)
protocol.description: Tango β-arrestin Recruitment Assay in U2OS cells (Assay 2b)
Type: cell-based
Parameters: linker with TEV protease (N1a) cleavage site (C)
test.parameters: Tango β-arrestin Recruitment Assay, read-out: Assay 2b EC50

compound | experimental.system | EC50
OCC(O)COc1cc(Cl)c(-c2nnc(-c3cn4cc(C(F)(F)F)cc(Cl)c4n3)s2)cc1F (stereo not drawn) | S1P1 (Homo sapiens) | 100 to 500 nM
Cc1cc(CCC(=O)O)c(Cl)cc1-c1noc(-c2cn3cc(C(F)(F)F)cc(Br)c3n2)n1 | S1P1 (Homo sapiens) | ≤ 100 nM
CC(Oc1cc(Cl)c(-c2nnc(-c3cn4cc(C(F)(F)F)cc(Cl)c4n3)s2)cc1F)C(=O)O (stereo not drawn) | S1P1 (Homo sapiens) | 100 to 500 nM
CS(=O)(=O)NCc1ccc(-c2nnc(-c3cn4cc(C(F)(F)F)cc(Cl)c4n3)s2)c(Cl)c1 | S1P1 (Homo sapiens) | ≤ 100 nM
OCCNc1cc(Cl)c(-c2noc(-c3cn4cc(C(F)(F)F)cc(Cl)c4n3)n2)cc1F | S1P1 (Homo sapiens) | ≤ 100 nM
CC(O)CCc1cc(Cl)c(-c2noc(-c3cn4cc(C(F)(F)F)cc(Cl)c4n3)n2)cc1Cl (stereo not drawn) | S1P1 (Homo sapiens) | ≤ 100 nM
COCC(O)COc1cc(Cl)c(-c2noc(-c3cn4cc(C(F)(F)F)cc(Cl)c4n3)n2)cc1Cl (stereo not drawn) | S1P1 (Homo sapiens) | ≤ 100 nM
N[C@H](CO)COc1cc(Cl)c(-c2nnc(-c3cn4cc(C(F)(F)F)cc(Cl)c4n3)s2)cc1Cl | S1P1 (Homo sapiens) | 100 to 500 nM
O=C(O)CCc1cc(Cl)c(-c2noc(-c3cn4cc(C(F)(F)F)cc(Cl)c4n3)n2)cc1F | S1P1 (Homo sapiens) | ≤ 100 nM
NCC(O)COc1cc(Cl)c(-c2nnc(-c3cn4cc(C(F)(F)F)cc(Cl)c4n3)s2)cc1Cl (stereo not drawn) | S1P1 (Homo sapiens) | ≤ 100 nM
NC(CO)COc1cc(Cl)c(-c2nnc(-c3cn4cc(C(F)(F)F)cc(Cl)c4n3)s2)cc1F (stereo not drawn) | S1P1 (Homo sapiens) | ≤ 100 nM
CC(O)(COc1cc(Cl)c(-c2noc(-c3cn4cc(C(F)(F)F)cc(Cl)c4n3)n2)cc1Cl)C(=O)O (stereo not drawn) | S1P1 (Homo sapiens) | ≤ 100 nM
NC(COc1cc(Cl)c(-c2noc(-c3cn4cc(C(F)(F)F)cc(Cl)c4n3)n2)cc1Cl)COP(=O)(O)O (stereo not drawn) | S1P1 (Homo sapiens) | ≤ 100 nM
CS(=O)(=O)Nc1ccc(-c2nnc(-c3cn4cc(C(F)(F)F)cc(Cl)c4n3)s2)c(Cl)c1 | S1P1 (Homo sapiens) | ≤ 100 nM
CC(C)(O)COc1cc(Cl)c(-c2noc(-c3cn4cc(C(F)(F)F)cc(Cl)c4n3)n2)cc1Cl | S1P1 (Homo sapiens) | ≤ 100 nM

* * *

experimental.system: hS1P1R (hEdg1) (Homo sapiens, UniProt P21453)
Sequence (P21453 whole entry): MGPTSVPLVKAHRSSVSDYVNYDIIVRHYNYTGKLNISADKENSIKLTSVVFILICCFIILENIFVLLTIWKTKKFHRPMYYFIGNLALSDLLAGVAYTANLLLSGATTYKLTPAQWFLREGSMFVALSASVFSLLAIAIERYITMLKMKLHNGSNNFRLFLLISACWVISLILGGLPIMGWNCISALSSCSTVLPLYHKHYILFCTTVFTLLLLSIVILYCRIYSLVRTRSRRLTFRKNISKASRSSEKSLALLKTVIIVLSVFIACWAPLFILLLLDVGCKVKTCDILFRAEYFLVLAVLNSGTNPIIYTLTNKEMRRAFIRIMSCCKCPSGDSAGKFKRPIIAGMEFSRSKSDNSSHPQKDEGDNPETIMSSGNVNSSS
protocol.description: hS1P1R GTPγS Binding Assay (Assay 3a)
pEC50: −log10 of the molar value.
parameter: pEC50

compound | parameter | reading
OCC(CO)COc1cc(Cl)c(-c2noc(-c3cn4cc(C(F)(F)F)cc(Cl)c4n3)n2)cc1Cl | pEC50 | ≥ 7.00
O=C(O)CCc1cc(Cl)c(-c2nc(-c3cn4cc(C(F)(F)F)cc(Cl)c4n3)no2)cc1Cl | pEC50 | 6.30 to 7.00
CC(Cc1cc(Cl)c(-c2nnc(-c3cn4cc(C(F)(F)F)cc(Cl)c4n3)s2)cc1Cl)C(=O)O (stereo not shown) | pEC50 | 5.30 to 6.00
O=C(O)CCc1cc(Cl)c(-c2noc(-c3cn4cc(C(F)(F)F)cc(Br)c4n3)n2)cc1F | pEC50 | ≥ 7.00

* * *

experimental.system: S1P1 (Homo sapiens)
protocol.description: Tango β-arrestin Recruitment Assay in U2OS cells (Assay 2b)
Format: cell-based
Parameters: linker with TEV protease (N1a) cleavage site (C)
test.parameters: Tango β-arrestin Recruitment Assay, read-out: Assay 2b EC50
EC50 values for the molecules below.

molecule | EC50
N[C@@H](CO)COc1cc(Cl)c(-c2nnc(-c3cn4cc(C(F)(F)F)cc(Cl)c4n3)s2)cc1Cl | ≤ 100 nM
CC(C)Oc1cc(Cl)c2nc(-c3nc(-c4cc(F)c(CCC(=O)O)cc4Cl)no3)cn2c1 | ≤ 100 nM
CC(N)(CO)COc1cc(Cl)c(-c2nnc(-c3cn4cc(C(F)(F)F)ccc4n3)s2)cc1F (stereo not drawn) | ≤ 100 nM
OCCNc1cc(Cl)c(-c2noc(-c3cn4cc(C(F)(F)F)cc(Cl)c4n3)n2)cc1Cl | ≤ 100 nM
O=C(O)C1CC1c1cc(Cl)c(-c2nc(-c3cn4cc(C(F)(F)F)cc(Cl)c4n3)no2)cc1Cl (stereo not drawn) | 100 to 500 nM
C[C@@H](CO)Oc1cc(Cl)c(-c2noc(-c3cn4cc(C(F)(F)F)cc(Cl)c4n3)n2)cc1Cl | ≤ 100 nM
Oc1cc(Cl)c(-c2nnc(-c3cn4cc(C(F)(F)F)cc(Cl)c4n3)s2)cc1F | 100 to 500 nM
OC[C@H](O)COc1cc(Cl)c(-c2nnc(-c3cn4cc(C(F)(F)F)cc(Cl)c4n3)s2)cc1Cl | ≤ 100 nM
Cc1cc(CCC(=O)O)c(Cl)cc1-c1noc(-c2cn3cc(C(F)(F)F)cc(Cl)c3n2)n1 | ≤ 100 nM
CC(=O)COc1cc(Cl)c(-c2noc(-c3cn4cc(C(F)(F)F)cc(Br)c4n3)n2)cc1Cl | ≤ 100 nM
O=C(O)C1CC1c1cc(Cl)c(-c2noc(-c3cn4cc(C(F)(F)F)cc(Br)c4n3)n2)cc1Cl (stereo not drawn) | ≤ 100 nM
OCC(O)COc1ccc(-c2nnc(-c3cn4cc(C(F)(F)F)cc(Cl)c4n3)s2)c(Cl)c1 (stereo not drawn) | 100 to 500 nM
CC(O)CNc1cc(Cl)c(-c2noc(-c3cn4cc(C(F)(F)F)cc(Cl)c4n3)n2)cc1Cl (stereo not drawn) | ≤ 100 nM
C[C@H](CO)Oc1cc(Cl)c(-c2noc(-c3cn4cc(C(F)(F)F)cc(Cl)c4n3)n2)cc1F | ≤ 100 nM
O=P(O)(O)OC[C@H](O)COc1cc(Cl)c(-c2noc(-c3cn4cc(C(F)(F)F)cc(Cl)c4n3)n2)cc1Cl | ≤ 100 nM
